src = PubChem BioAssay (NCATS)

assay: qHTS Assay for Lipid Storage Modulators (AID 1519); details: Drosophila S3 cells, BODIPY lipid droplet/cell ratio, laser cytometry; at 25.7 µM (top of the series); cells loaded with oleic acid; note: % is set by controls: 0 for no effect and ±100 for the full control effect
Inconclusive results are not listed. Active and inactive are the calls of the source. Calls come from the whole dose curve. Bridge positions count the residues as written; N and C are the ends. Square brackets hold non-standard residues; d marks the D form. Peptide text beside a SMILES is read from it. * marks the point of attachment. Ileψ(thiazoline)Cys = CC[C@H](C)[C@H](N)C1=N[C@H](C(=O)*)CS1; d(aIle) = CC[C@H](C)[C@@H](N)C(=O)O; dOrn = NCCC[C@@H](N)C(=O)O
Each entry below lists one item and its recorded activity change, negative = inhibition value.

Compound	activity change, negative = inhibition
COc1c2c(nc3ccccc13)O[C@H]([C@@](C)(O)CO)C2	1.14% (inactive)

The measured activity change, negative = inhibition associated with CC[C@H](C)[C@H](N)C1=N[C@H](C(=O)N[C@@H](CC(C)C)C(=O)N[C@@H](CCC(=O)O)C(=O)N[C@@H](C(=O)N[C@H]2CCCCNC(=O)[C@@H](CC(N)=O)NC(=O)[C@@H](CC(=O)O)NC(=O)[C@@H](Cc3cnc[nH]3)NC(=O)[C@@H](Cc3ccccc3)NC(=O)[C@@H]([C@@H](C)CC)NC(=O)[C@@H](CCCN)NC2=O)[C@@H](C)CC)CS1 ({Ileψ(thiazoline)Cys}-LE[d(aIle)]K[dOrn][d(aIle)][dF][dH][dD][dN]; lactam 4-C) reads -0.807% (inactive)

The measured activity change, negative = inhibition associated with `CC1(C)O[C@H]2C[C@@H]3[C@H]4CCC5=CC(=O)CC[C@@]5(C)[C@]4(F)[C@@H](O)C[C@@]3(C)[C@@]2(C(=O)CCl)O1` reads -3.97% (inactive)

The measured activity change, negative = inhibition associated with `CCC(=O)O[C@@H]1[C@H](C)O[C@H](O[C@H]2[C@@H](N(C)C)[C@H](O)[C@@H](O[C@@H]3[C@@H](CC=O)C[C@@H](C)[C@@H](O)/C=C\C=C/C[C@@H](C)OC(=O)C[C@@H](OC(=O)CC)[C@H]3OC)O[C@H]2C)C[C@]1(C)O` reads -0.346% (inactive)

The measured activity change, negative = inhibition associated with `CN[C@@H]1[C@H](O[C@H]2[C@@H](O[C@@H]3[C@@H](O)[C@@H](O)[C@@H](N=C(N)N)[C@@H](O)[C@@H]3N=C(N)N)O[C@@H](C)[C@]2(O)CO)O[C@H](CO)[C@@H](O)[C@@H]1O` reads -1.28% (inactive)
